// compounds with IC50 on Tyrosine-protein kinase JAK3 (Homo sapiens, UniProt P52333), multi-source literature
Target: Tyrosine-protein kinase JAK3 (Homo sapiens, UniProt P52333)
Sequence (P52333 whole entry): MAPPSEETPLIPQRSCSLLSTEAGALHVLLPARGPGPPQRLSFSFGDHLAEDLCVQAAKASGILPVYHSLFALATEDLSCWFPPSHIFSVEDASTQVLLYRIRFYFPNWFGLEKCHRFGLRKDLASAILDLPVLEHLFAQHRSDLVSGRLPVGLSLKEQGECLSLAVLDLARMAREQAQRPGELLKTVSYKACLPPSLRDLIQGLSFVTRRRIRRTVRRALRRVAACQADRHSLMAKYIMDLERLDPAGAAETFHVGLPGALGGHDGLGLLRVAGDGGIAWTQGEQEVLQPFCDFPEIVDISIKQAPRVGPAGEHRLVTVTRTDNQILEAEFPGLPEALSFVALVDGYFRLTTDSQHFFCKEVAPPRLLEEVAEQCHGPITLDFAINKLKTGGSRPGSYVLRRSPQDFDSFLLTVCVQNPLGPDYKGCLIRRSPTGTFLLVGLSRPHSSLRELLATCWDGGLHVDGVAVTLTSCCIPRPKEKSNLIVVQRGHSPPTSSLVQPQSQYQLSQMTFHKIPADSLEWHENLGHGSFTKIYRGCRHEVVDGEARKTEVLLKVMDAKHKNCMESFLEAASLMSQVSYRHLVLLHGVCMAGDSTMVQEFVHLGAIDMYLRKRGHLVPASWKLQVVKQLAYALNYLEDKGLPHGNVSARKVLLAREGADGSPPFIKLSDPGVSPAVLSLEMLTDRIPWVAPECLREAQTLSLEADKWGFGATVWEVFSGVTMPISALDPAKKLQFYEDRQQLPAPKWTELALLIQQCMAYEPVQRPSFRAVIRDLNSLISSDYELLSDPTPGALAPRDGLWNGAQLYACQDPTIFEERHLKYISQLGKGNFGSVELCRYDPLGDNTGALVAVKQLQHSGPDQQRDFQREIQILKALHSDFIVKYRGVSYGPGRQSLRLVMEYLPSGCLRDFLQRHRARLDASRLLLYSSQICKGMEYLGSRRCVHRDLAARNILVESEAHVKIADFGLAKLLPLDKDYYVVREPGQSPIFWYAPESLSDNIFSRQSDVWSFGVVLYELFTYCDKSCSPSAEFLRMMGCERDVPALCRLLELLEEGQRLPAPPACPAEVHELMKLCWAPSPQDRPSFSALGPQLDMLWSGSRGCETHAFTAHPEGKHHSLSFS

Below: 2 compounds and their reported IC50.
- compound: "CO[C@H]1OC(=O)[C@@]2(CC(=O)c3cc(O)ccc3O)C[C@@H]3[C@@H](C/C=C(\\CC(=O)c4cc(O)ccc4O)C(=O)O)C(C=O)=CO[C@@H]3[C@@]12C (racemic)"
  IC50: "< 10 µM"
- compound: "Cc1ccc(NC(=O)c2cnoc2C)cc1C(=O)Nc1cnc(Nc2ccc(N3CCN(C)CC3)cc2)nc1"
  IC50: "> 25 µM"

For the next question, use this compound.
## Input Need IC50 of CC(=O)c1ccc2c(c1)CC[C@H]1[C@@](CO)(C(=O)O)CCC[C@]21C , thanks.
## Output > 100 µM

---

# literature pull: Tyrosine-protein kinase JAK3 (Homo sapiens, UniProt P52333) IC50

Guide cases for IC50, answers given:
- compound: "COc1cc(C(=O)Nc2ccc(NC(=O)C3CCCCN3)cc2)cc(-c2c[nH]c(=O)[nH]c2=O)c1 (configuration not stated)"
  IC50: "> 30 µM"
- compound: "CC(C)c1ccc2c(c1)CC[C@H]1[C@@](CO)(C(=O)O)CCC[C@]21C"
  IC50: "> 100 µM"
- compound: "CS(=O)(=O)Nc1ccc(-c2ccnc(Nc3ccc(CN4CCOCC4)cc3)n2)cc1"
  IC50: "> 1 µM"
- compound: "Cc1nc2cnc3ccc(-c4ccc(O)c(C#N)c4)cc3c2n1C1CCN(C)CC1"
  IC50: "> 0.5 µM"
- compound: "COc1cc(C(=O)Nc2ccc(NC(=O)c3ccccn3)cc2)cc(N2CCC(=O)NC2=O)c1"
  IC50: "> 30 µM"

## Input Which IC50 value is on record for Cc1cc(Nc2nc(N[C@@H](C)c3ncc(F)cn3)nc(N3CCOCC3)c2F)n[nH]1 ?
## Output > 30 µM

## Input Same question, CNc1nccc(-c2cccnc2Oc2ccc(Nc3nnc(-c4ccc(F)cc4)c4ccccc34)cc2)n1 this time
## Output > 25 µM
